- Test details: folding stability dG unfold from trypsin proteolysis; higher = more stable
Reported folding stability dG unfold values are given for each entry in this list.
Answer format: numeric, kcal/mol implied, no suffix.

Before answering, review these 3 worked examples.
SAMKTIEIEIELDELKNLTPEELEEKAKELAEELAKKLAEEKGLEVVSVKVEVVEKDGKLVVKVTVEVKSAG [r14_310_TrROS_Hall] :: 3.59
SAGGSAGGMLTFTFSLSEIPPYPSGSLSLEEVKKRMEPILRKLLGRKDVKIKVESLPDGTIRVTVESAGGSA [r15_562_JUSTAS] :: 3.95
SAGGSAGGMKVLATTEDGEVYLFDLSEFDLSFEEWLNLGEEELAELLRKAFPEKEITLELVEEPSAGGSAGG [r6_164_TrMRF] :: 2.5

Query: Tell me the measured folding stability dG unfold of SAVPLELPLSDEELRELLEKHSVDSTITLTLKVGDRWVRVTVTLKEVKREPNRLSVSVELTVTPLPPEESAG [r14_335_JUSTAS] , please.
Response: 2.86
